Where do the numbers come from? From ChEMBL document CHEMBL4715728.

The following compounds are shown together with reported Activity values.
# assay-name: Cytotoxicity against Sprague-Dawley rat Cerebral cortex neuron assessed as LDH activity at 10 uM incubated for 24 hrs by LDH assay
# Assay type: tissue-based
State the answer as a number, implicitly in mU/ml.

Use these answered entries as a reference point.
O=C(CCCCC1CCSS1)OC1CCN(Cc2ccccc2)CC1 (stereo not given)    0.29
O=C(CCCCC1CCSS1)OC1CCN(Cc2ccc(F)cc2)CC1 (stereo not given)    0.29

*Q* Query (compound): O=C(CCCCC1CCSS1)N1CCN(Cc2ccc(F)cc2)CC1 (stereo not given) ; field requested: Activity
*A* 0.34

*Q* Query (compound): O=C(CCCC[C@@H]1CCSS1)OC1CCN(Cc2ccccc2)CC1 ; field requested: Activity
*A* 0.3

*Q* Query (compound): O=C(CCCC[C@@H]1CCSS1)N1CCN(Cc2ccccc2)CC1 ; field requested: Activity
*A* 0.32

###

# assay-name: Stability of compound in fasted state stimulated intestinal fluid at pH 7.4 assessed as rate of compound hydrolysis in presence of 40 mg/ml pancreatin by HPLC-UV assay
# Assay type: ADME
# measurement-setup: simulated gi fluid
Think of 0.02 h⁻¹ as a floor: if Drug degradation stands on it or above, it is 1; beneath it, 0.

// known answers, use as guide
O=C(CCCCC1CCSS1)N1CCN(Cc2ccccc2)CC1 (stereo not given)    1
O=C(CCCCC1CCSS1)N1CCN(Cc2ccc(F)cc2)CC1 (stereo not given)    1
O=C(CCCCC1CCSS1)OC1CCN(Cc2ccccc2)CC1 (stereo not given)    1
COc1ccc(CN2CCN(C(=O)CCCCC3CCSS3)CC2)cc1 (stereo not given)    0

# input for lookup
*Q* I'd appreciate it if you could say whether COc1ccc(CN2CCC(OC(=O)CCCCC3CCSS3)CC2)cc1 (stereo not given) has Drug degradation at least equal to 0.02 h⁻¹.
*A* 1

###

# assay-name: Stability of compound in non-enzymatic stimulated-gastric fluid at pH 1.3 assessed as half life by HPLC-UV assay
# Type: physicochemical
# measurement-setup: non-enzymatic simulated gastric fluid
Think of 50 h as a floor: if half-life stands on it or above, it is label 1; beneath it, label 0.

COc1ccc(CN2CCN(C(=O)CCCCC3CCSS3)CC2)cc1 (stereo unspecified)    label 1
COc1ccc(CN2CCC(OC(=O)CCCCC3CCSS3)CC2)cc1 (stereo unspecified)    label 1
O=C(CCCCC1CCSS1)OC1CCN(Cc2ccc(F)cc2)CC1 (stereo unspecified)    label 0
O=C(CCCCC1CCSS1)N1CCN(Cc2ccc(F)cc2)CC1 (stereo unspecified)    label 1
O=C(CCCCC1CCSS1)N1CCN(Cc2ccccc2)CC1 (stereo unspecified)    label 1

*Q* I'd appreciate it if you could say whether O=C(CCCCC1CCSS1)OC1CCN(Cc2ccccc2)CC1 (stereo unspecified) has half-life at least equal to 50 h.
*A* label 1

###

# assay-name: Cytotoxicity against Sprague-Dawley rat Cerebral cortex neuron assessed as cell viability at 0.1 uM incubated for 24 hrs by MTT assay relative to control
# Type: tissue-based
# measurement-setup: cerebral cortex neurons, read-out: Activity
property-measured: viability at 24 h, 0.1 µM

Use these answered entries as a reference point.
COc1ccc(CN2CCC(OC(=O)CCCCC3CCSS3)CC2)cc1 (centres undefined)    99.5%
O=C(CCCCC1CCSS1)OC1CCN(Cc2ccc(F)cc2)CC1 (centres undefined)    97.5%
O=C(CCCCC1CCSS1)N1CCN(Cc2ccc(F)cc2)CC1 (centres undefined)    99.3%
COc1ccc(CN2CCN(C(=O)CCCCC3CCSS3)CC2)cc1 (centres undefined)    98.1%
O=C(CCCC[C@@H]1CCSS1)OC1CCN(Cc2ccccc2)CC1    100%

*Q* Query (molecule): O=C(CCCC[C@@H]1CCSS1)N1CCN(Cc2ccccc2)CC1 ; field requested: viability at 24 h, 0.1 µM
*A* 98.5%

*Q* Query (molecule): O=C(CCCCC1CCSS1)OC1CCN(Cc2ccccc2)CC1 (centres undefined) ; field requested: viability at 24 h, 0.1 µM
*A* 99.8%

*Q* Query (molecule): O=C(O)CCCC[C@@H]1CCSS1 ; field requested: viability at 24 h, 0.1 µM
*A* 98.6%

*Q* Query (molecule): O=C(CCCCC1CCSS1)N1CCN(Cc2ccccc2)CC1 (centres undefined) ; field requested: viability at 24 h, 0.1 µM
*A* 99.4%

###

# assay-name: Stability of compound in fasted state stimulated intestinal fluid at pH 1.3 assessed as half life in presence of 40 mg/ml pepsin by HPLC-UV assay
# Format: ADME
# measurement-setup: fasted state simulated intestinal fluid with pepsin
The following compounds are shown together with reported log10 half-life values.
Form field - Quantity: half-life; Unit: h; Scale: log10

Use these answered entries as a reference point.
COc1ccc(CN2CCN(C(=O)CCCCC3CCSS3)CC2)cc1 (stereo unspecified)    1.37
O=C(CCCCC1CCSS1)OC1CCN(Cc2ccccc2)CC1 (stereo unspecified)    1.36
COc1ccc(CN2CCC(OC(=O)CCCCC3CCSS3)CC2)cc1 (stereo unspecified)    1.35
O=C(CCCCC1CCSS1)OC1CCN(Cc2ccc(F)cc2)CC1 (stereo unspecified)    -0.17
O=C(CCCCC1CCSS1)N1CCN(Cc2ccc(F)cc2)CC1 (stereo unspecified)    1.57

Could you now look at the following compound, please?
*Q* Query (compound): O=C(CCCCC1CCSS1)N1CCN(Cc2ccccc2)CC1 (stereo unspecified) ; field requested: log10 half-life
*A* 1.82

###

# assay-name: Antioxidant activity in Sprague-Dawley rat Cerebral cortex neuron assessed as total antioxidant capacity by measuring trolox equivalents at 1 uM after 24 hrs
# Format: functional
property-measured: TAC (mmol/L)
State the answer as a number, implicitly in mmol/L.

Use these answered entries as a reference point.
O=C(CCCCC1CCSS1)OC1CCN(Cc2ccccc2)CC1 (stereo not given)    10.9
O=C(CCCCC1CCSS1)N1CCN(Cc2ccc(F)cc2)CC1 (stereo not given)    11.2
COc1ccc(CN2CCN(C(=O)CCCCC3CCSS3)CC2)cc1 (stereo not given)    11.2
O=C(CCCC[C@@H]1CCSS1)N1CCN(Cc2ccccc2)CC1    10.5

Could you now look at the following molecule, please?
*Q* Query (molecule): COc1ccc(CN2CCC(OC(=O)CCCCC3CCSS3)CC2)cc1 (stereo not given) ; field requested: TAC
*A* 11.3

###

# assay-name: Cytotoxicity against Sprague-Dawley rat Cerebral cortex neuron assessed as LDH activity at 0.1 uM incubated for 24 hrs by LDH assay (reference value: […])
# Type: tissue-based
property-measured: Activity (mU/ml)
State the answer as a number, implicitly in mU/ml.

Use these answered entries as a reference point.
O=C(CCCCC1CCSS1)OC1CCN(Cc2ccccc2)CC1 (stereo not given)    0.3
O=C(CCCC[C@@H]1CCSS1)N1CCN(Cc2ccccc2)CC1    0.3
COc1ccc(CN2CCC(OC(=O)CCCCC3CCSS3)CC2)cc1 (stereo not given)    0.28
O=C(CCCCC1CCSS1)N1CCN(Cc2ccccc2)CC1 (stereo not given)    0.3

Could you now look at the following compound, please?
*Q* Query (compound): O=C(CCCCC1CCSS1)N1CCN(Cc2ccc(F)cc2)CC1 (stereo not given) ; field requested: Activity
*A* 0.3

###

# assay-name: Antioxidant activity in Sprague-Dawley rat Cerebral cortex neuron assessed as total antioxidant capacity by measuring trolox equivalents at 100 uM after 24 hrs
# Assay type: functional
property-measured: TAC (mmol/L)
State the answer as a number, implicitly in mmol/L.

Use these answered entries as a reference point.
O=C(CCCC[C@@H]1CCSS1)N1CCN(Cc2ccccc2)CC1    11.2
O=C(CCCCC1CCSS1)N1CCN(Cc2ccc(F)cc2)CC1 (stereo unspecified)    11.1
O=C(CCCCC1CCSS1)OC1CCN(Cc2ccc(F)cc2)CC1 (stereo unspecified)    12.4
COc1ccc(CN2CCC(OC(=O)CCCCC3CCSS3)CC2)cc1 (stereo unspecified)    10.7

*Q* Query (compound): COc1ccc(CN2CCN(C(=O)CCCCC3CCSS3)CC2)cc1 (stereo unspecified) ; field requested: TAC
*A* 10.8

*Q* Query (compound): O=C(CCCC[C@@H]1CCSS1)OC1CCN(Cc2ccccc2)CC1 ; field requested: TAC
*A* 11
